Quick reference for GI50 among some compounds
# Test system: OVCAR-8
# Test protocol: NCI tumour cell line growth inhibition, 48 h
Calls of active or inactive are those of the source. No stated cut-off is given here; in the data, active = GI50 up to about 1.1 µM and inactive = higher.
Quantity name: GI50

>>> print(df.to_string())
                                   compound      observed_result
0  Cc1cc(/N=C/c2ccc(N(C)C)cc2)n(-c2ccccc2)n1     78 µM (inactive)
1  COc1cc2c(cc1O)[C@H](C)C(c1ccc(OC)c(OC)c1)O2 (stereo not given in full)   13.2 µM (inactive)
2                 CC(C)CNc1nc(N)nc(O)c1NC=O  > 100 µM (inactive)
3         CC(=O)OCCOCNC(=S)N/N=C(\C)c1cccs1  > 100 µM (inactive)
4  COc1ccc(N2C(=O)/C(=C\c3cc(OC)c(OC)c(OC)c3)S(=O)(=O)C2c2ccccc2)cc1 (stereo not given)   25.2 µM (inactive)
5  CC(=O)NC(CCCCNC(=O)N(CCCl)N=O)C(=O)NCc1ccccc1 (stereo not given)  > 100 µM (inactive)
6  CSc1nc(Br)nc2c1ncn2C1CC(Oc2ccc(C)cc2)C(COc2ccc(C)cc2)O1 (stereo not given)  > 100 µM (inactive)
7     N#Cc1c(O)c(C=O)c(=O)n2c1[nH]c1ccccc12  > 100 µM (inactive)
8  CC(=O)n1c2c(c(=O)n1-c1ccccc1)[S+]([O-])CCC2 (stereo not given)  > 100 µM (inactive)
9  O=C(Nc1ccccc1)OC1OC(COC(=O)c2ccccc2)C(OC(=O)c2ccccc2)C1OS(=O)(=O)c1ccc([N+](=O)[O-])cc1 (stereo not given)  > 100 µM (inactive)

###

# Test system: PC-3
# Test protocol: NCI tumour cell line growth inhibition, 48 h
Activity calls are given as the source filed them. Rule as the data show it: active = GI50 up to about 1.1 µM and inactive = higher.
Quick reference for GI50 among some compounds
Quantity name: GI50

In [3]: df
Out[3]:
                                   compound  quantity_name      observed_result
0  CC(=O)OC1C(COC(=O)c2ccccc2)OC(Nc2ncc(-c3ccc(Br)cc3)s2)C(OC(=O)c2ccccc2)C1OC(=O)c1ccccc1 (stereo not given)           GI50  > 100 µM (inactive)
1  OC1CCCCCCCCCCC1SCCCCl (stereo not given)           GI50  > 100 µM (inactive)
2  CSc1nc(Br)nc2c1ncn2C1CC(Oc2ccc(C)cc2)C(COc2ccc(C)cc2)O1 (stereo not given)           GI50  > 100 µM (inactive)
3           N[C@H](C(=O)O)[C@@H]1CC(Br)=NO1           GI50   23.6 µM (inactive)
4  O=C(Nc1ccccc1)OCCN=C1c2ccccc2C(Br)C(Br)c2ccccc21 (stereo not given)           GI50   19.3 µM (inactive)
5                 COc1cccc(C=C(C#N)C#N)c1OC           GI50  > 100 µM (inactive)
6            O=c1c2cccnc2[nH]c2ccc3scnc3c12           GI50   > 10 µM (inactive)
7  CN(C)CCOc1ccc(-c2c(Oc3ccc(Cl)cc3)c(=O)oc3ccccc23)cc1           GI50   6.64 µM (inactive)
8  COC(=O)C(/C(=N/N)C(=O)Nc1cc(Cl)c(Cl)cc1Cl)c1nc2ccc(Cl)cc2nc1O (stereo not given)           GI50  > 100 µM (inactive)
9  CN(C)c1ccc(C2CC(=O)CC(c3ccc(N(C)C)cc3)C23C(=O)NC(=O)NC3=O)cc1 (stereo not given)           GI50   > 25 µM (inactive)
